// data source = PubChem BioAssay (NCI)

Test system: SK-MEL-28 melanoma
Assay: NCI tumour cell line growth inhibition, 48 h
MEASURE: TGI

Field TGI (SK-MEL-28 melanoma), entry CCCCCCN1C(=O)/C(=c2\sc3n(c2=O)C2C(NN=3)N(CC)C(=O)N2CC)c2ccccc21 (configuration not stated) : > 50 µM

Sample C/C(=N\NC(N)=S)c1ccc2c(c1)OCO2 , system: SK-MEL-28 melanoma. Its TGI is > 100 µM

Lab note: compound CC1(C)CCSC(/C=C/c2ccccc2)=N1 tested on SK-MEL-28 melanoma; recorded TGI was 43 µM

Note to self: TGI of CCCCCCN(C(=O)Oc1ccccc1)C(C#N)c1ccccc1 (configuration not stated) with SK-MEL-28 melanoma was > 100 µM

Param item: CC(C)=CC(=O)Cc1nc2ccccc2[nH]c1=O ; param system: SK-MEL-28 melanoma; output TGI: > 100 µM

Case C[C@]12CC[C@H]3[C@@H](CC=C4C[C@@H](O)CC[C@@]43C)[C@@H]1C/C(=C\c1cccc(OCCN3CCOCC3)c1)[C@@H]2O , SK-MEL-28 melanoma, TGI recorded as 56.4 µM

Form field TGI for item CCOP(=O)(CS(C)=O)O[C@@H]1C[C@H](C)CC[C@H]1C(C)C (some centres not stated) on SK-MEL-28 melanoma: > 100 µM

Lab note: compound CCN(CC)CCCCC1CCN(CC(=O)N2c3ccccc3NC(=O)c3ccccc32)CC1 tested on SK-MEL-28 melanoma; recorded TGI was > 100 µM

Value (TGI, SK-MEL-28 melanoma) for record Cn1c(=O)nc2n(CCO)c(-c3ccccc3)c(-c3ccccc3)nc-2c1=O = > 100 µM

TGI of COC(=O)c1c2c(c(C)[n+]([O-])c1C)C(=O)C=C(NCc1ccc(Cl)cc1)C2=O , assay on SK-MEL-28 melanoma, is 2.59 µM

Entry COC(=O)c1c/c(=N\NC(=O)CC(=O)Nc2ccccc2Cl)c2ccccc2o1 , SK-MEL-28 melanoma data, TGI value: > 100 µM

Measured TGI for this entry Cc1c(CCN=P(c2ccccc2)(c2ccccc2)c2ccccc2)c(=O)n2c([nH]c3ccccc32)c1C#N on SK-MEL-28 melanoma: > 10 µM
